tested on: glycogen synthase kinase-3 (GSK3A per assay name; protocol says GSK3B); assay: compounds binding glycogen synthase kinase-3 – biochemical, small-molecule microarray, 635 nm fluorescence, GSK3A, primary screen (AID 1103); conditions: fluorescence 635 nm, higher = more signal; further: the record names both GSK3A and GSK3B
readout kind: composite z-score
# respond with the number and nothing more

Example entries begin here.
chemical structure | target or system | numeric readout
CN(C)CCCC[C@@H]1NC(=O)[C@@H]2C[C@H](C(=O)NCCCCCN)[C@H](c3ccc(O)cc3)N2C1=O | glycogen synthase kinase-3 (GSK3A per assay name; protocol says GSK3B) | 0.31
C=CCOC(=O)[C@@H]1[C@H]2C(=O)O[C@H](c3ccccc3)[C@H](c3ccccc3)N2[C@H](c2ccc(OCCOC(=O)[C@H]3C[C@H]4C(=O)N[C@@H](CC(C)C)C(=O)N4[C@H]3c3cccc(OCCO)c3)cc2)[C@@]12C(=O)Nc1ccc(I)cc12 | glycogen synthase kinase-3 (GSK3A per assay name; protocol says GSK3B) | 1.32

In the following, a different compound is considered.
[in] API: value(readout= composite z-score, system= glycogen synthase kinase-3 (GSK3A per assay name; protocol says GSK3B), query= "COc1ccc([Si](C)(C)[C@@H]2[C@@H](CCO)O[C@]3(C(=O)N(Cc4cccc(N5CCCCC5=O)c4)c4ccccc43)[C@H]2C)cc1" )
[out] 0.971

---

Recorded composite z-score for the following molecules
experiment: probe aLefty2 binding to arrayed compounds – biochemical, biotinylated probe, 635/667 nm fluorescence, primary screen (AID 1094); conditions: small-molecule microarray, higher = more signal;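 further: score merges spot fluorescence near 667 nm with spot signal-to-noise ratio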
No unit in the answer, please; the number alone is enough.

molecule | composite z-score
[N-]=[N+]=Nc1ccccc1[C@H]1OC(c2ccc(OCCCO)cc2)=N[C@@]1(CCS(=O)(=O)c1ccccc1)C(=O)N1CCOCC1 | 0.766
CC(C)C(O)C1C=CC2C(=O)N(C)C(=O)C2N1N1CCCCC1 (configuration not stated) | 0.169
COC(=O)[C@@]1(Cc2ccc(F)cc2)[C@H]2c3cc(C(=O)N4CCCC4)n(Cc4ccc(Cl)c(C(F)(F)F)c4)c3C[C@H]2CN1C(=O)c1ccccc1 | 1.12

[in] Can you look up the measured composite z-score of C=CCC(OC(C)=O)[C@@H]1[C@@H](N(Cc2ccc(-c3cccc(C(F)(F)F)c3)o2)C(=O)c2ccc(C)cc2)c2cc(OCCCO)ccc2N1C(=O)c1ccc2ccccc2n1 (some centres not stated) for me?
[out] -0.0286

[in] Give its composite z-score value. Item: "O=C1C[C@@](C(=O)O)(c2ccc([N+](=O)[O-])cc2)[C@@H](c2ccc(CO)cc2I)N1CC12CC3CC(CC(C3)C1)C2"
[out] -0.0096

[in] What does the record list as composite z-score for "O=C1[C@H]2C=C(Br)[C@H](C[C@@H]2OCCOCCO)[C@@]12CO2" ?
[out] -0.111

[in] Look up composite z-score for this molecule: "COc1ccc(C#Cc2ccc3c(c2)[C@]2(C(=O)N3)[C@H](C(=O)N3CCN(c4ncccn4)CC3)[C@H]3C(=O)O[C@H](c4ccccc4)[C@H](c4ccccc4)N3[C@@H]2c2ccc(O)cc2)cc1"
[out] 0.0897

---

biological target: NADPH oxidase 4 (Homo sapiens) (UniProt Q9NPH5); experiment: compounds shifting NOX4 Amplex Red fluorescence – cell-based, HEK293-NOX4, tetracycline-induced, NOX inhibitor project, primary screen (AID 1160); settings: HEK293-NOX4, Amplex Red H2O2 fluorescence, 45 min; higher = more signal, called active from +8 up or from −8 down
Sequence (Q9NPH5 whole entry, looked up): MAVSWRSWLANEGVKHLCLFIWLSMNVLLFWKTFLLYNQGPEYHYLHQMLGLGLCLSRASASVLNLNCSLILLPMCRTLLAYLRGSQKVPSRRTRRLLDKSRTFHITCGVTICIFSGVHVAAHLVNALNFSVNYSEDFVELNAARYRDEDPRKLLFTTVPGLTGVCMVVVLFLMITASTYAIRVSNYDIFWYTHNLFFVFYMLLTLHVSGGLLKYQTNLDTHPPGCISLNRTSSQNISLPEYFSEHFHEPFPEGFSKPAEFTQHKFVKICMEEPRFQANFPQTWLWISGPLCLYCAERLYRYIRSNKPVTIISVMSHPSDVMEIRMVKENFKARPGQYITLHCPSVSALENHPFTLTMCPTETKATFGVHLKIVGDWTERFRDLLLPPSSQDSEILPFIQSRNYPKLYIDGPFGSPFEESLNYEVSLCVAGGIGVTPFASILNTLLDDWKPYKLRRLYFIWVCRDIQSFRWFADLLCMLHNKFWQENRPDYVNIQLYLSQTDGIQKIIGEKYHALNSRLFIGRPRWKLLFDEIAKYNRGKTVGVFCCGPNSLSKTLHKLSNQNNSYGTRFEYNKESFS
Would you mind labelling by z-score? At or over -0.7 is label 1, under is label 0.

compound | group label
CC(c1ccccc1)C(O)C1C=CC2C(=O)N(Cc3ccccc3)C(=O)C2N1n1cnnc1 (stereo not given) | label 0
C[C@H]1C2[C@H](Cc3ccccc3)NC(=O)[C@]23C(=O)N[C@H](Cc2ccccc2)C(=O)N[C@H](Cc2ccccc2)C(=O)NC/C=C/CCC/C=C/C3[C@@H]2O[C@]12C (stereo not given in full) | label 1
C=C(CCCC)C(=O)CC[C@H](OC(=O)c1ccccc1-c1ccccc1C(=O)O)c1ccc(CO)o1 | label 1
COCCOC(=O)N1C(=O)[C@@]2(c3ccccc31)[C@H](c1ccc(O)cc1)N1[C@H](c3ccccc3)[C@H](c3ccccc3)OC(=O)[C@H]1[C@@H]2C(N)=O | label 0
O=C1C2C=CC(C(O)c3ccc(-c4ccccc4)s3)N(Nc3ccccc3F)C2C(=O)N1c1ccccc1 (stereo not given) | label 0
C=CCN1C(=O)[C@@]2(O[C@@H](CCO)[C@H]([Si](C)(C)c3ccc(OC)cc3)[C@H]2C)c2cc(N3C(=O)COc4ccccc43)ccc21 | label 1

[in] Textbook exercise: given the entry CC(C)C(CO)N1C(=O)[C@@H]2[C@H]3C(=O)OCC=C[C@H]3OC23C=CCN(c2ccc4ccccc4c2)C(=O)[C@@H]13 (stereo not given in full) , state whether its z-score is greater than or equal to -0.7.
[out] label 1

[in] # check: z-score of CN1C(=O)C2C=CC(C(O)c3ccc(Br)cc3)N(Nc3ccccc3)C2C1=O (stereo not given) is greater than or equal to -0.7
[out] label 0

[in] Determine whether this compound has z-score no lower than -0.7: C=CCC(OC(C)=O)[C@@H]1[C@@H](N(Cc2ccc(-c3ccccc3)cc2)C(=O)c2ccc(C)cc2)c2cc(OCCCO)ccc2N1C(=O)Cc1ccc(OC)cc1 (stereo not given in full)
[out] label 1

[in] Identify whether the reported z-score of the following compound is -0.7 or greater: "C=C[C@H](C)[C@H](O)c1ccc(OCCO)cc1"
[out] label 1

[in] Exam item: decide whether the reported z-score for "CC[C@@H]1C=C(C(=O)O)[C@H](c2ccc(C(C)C)cc2)N1S(=O)(=O)c1ccc(C)cc1" is at least -0.7.
[out] label 1

[in] Decide: z-score of "O=C1c2ccccc2[C@@]2(Cc3ccccc3N(Cc3ccccc3)C2=O)[C@H](c2ccc(CO)cc2)N1Cc1ccccc1C(F)(F)F" >= -0.7?
[out] label 1

[in] Reported z-score at or above -0.7? "CO[C@H]1O[C@H](CO)[C@@H](OC(=O)Nc2ccccc2-c2ccccc2)[C@H](OC(=O)Nc2ccccc2-c2ccccc2)[C@H]1OC(=O)Nc1ccccc1-c1ccccc1"
[out] label 0

[in] Kindly determine if z-score recorded for "Cc1ccc(N2C(=O)c3ccccc3[C@](C)(C(=O)NCCN3CCOCC3)[C@@H]2c2ccc(CO)cc2)nc1" is above or exactly -0.7.
[out] label 1

[in] Is z-score at least -0.7? Consider "[N-]=[N+]=Nc1ccccc1[C@@H]1OC(c2ccc(OCCCO)cc2)=N[C@]1(CCS(=O)(=O)c1ccccc1)C(=O)N1CCCCC1"
[out] label 1

---

test system: Fibrinogen (Alexa647-labelled); assay: Alexa647-fibrinogen binding to printed small molecules – biochemical, small-molecule microarray, 635/667 nm fluorescence, artefact control for SMM control-protein annotation, profiling panel (AID 1131); conditions: fibrinogen-A647 binding fluorescence, higher = more signal;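 further: z-score merges 667 nm fluorescence with per-spot signal-to-noise over triplicate slides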
Binary classification by composite z-score, with 0.7 as an inclusive lower bound for Met; all other cases are Not met.

Known results for molecules:
molecule | group label
CCCC[C@H]1OB(O)C[C@H]2C1=C(C)Cn1c(=O)n(-c3ccccc3)c(=O)n12 | Not met
O=C1C2C=CC(C(O)C3CC=CCC3)N(n3cnnc3)C2C(=O)N1Cc1ccccc1 (stereo not drawn) | Met

[in] State whether the measured composite z-score reaches 0.7, counting equality as reaching it, for "CC(C)C[C@@H]1NC(=O)[C@@H]2C[C@H](C(=O)NCCCCN(C)C)[C@H](c3ccc(O)cc3)N2C1=O"
[out] Not met

[in] API: above_or_equal(metric=composite z-score, cutoff=0.7) for item "Cc1ccc(S[C@]2(C(=O)NCC(C)C)CC(=O)N(Cc3ccccc3)[C@@H]2c2ccc(CO)cc2)cc1"
[out] Not met

[in] Entry "O=C(CS)NCCCCCNC(=O)[C@H]1C[C@H]2C(=O)N[C@@H](Cc3ccccc3)C(=O)N2[C@H]1c1cccc(OCCO)c1" : is its composite z-score no less than 0.7?
[out] Met

[in] Is composite z-score at least 0.7? Consider "COc1ccc(C#Cc2ccc3c(c2)[C@]2(C(=O)N3)[C@H](c3ccc(OCCO)cc3)N3[C@H](c4ccccc4)[C@H](c4ccccc4)OC(=O)[C@H]3[C@@H]2C(=O)Nc2nc3ccccc3s2)cc1"
[out] Met

---

system: Sam68 (KHDRBS1); experiment: compounds binding KHDRBS1 protein – biochemical, small-molecule microarray, 635 nm fluorescence, primary screen (AID 1125); conditions: higher = more signal;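 further: score merges 667 nm channel intensity with signal to noise over triplicate slides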
readout kind: composite z-score
// no unit, no text: just the number

# count of solved cases: 6
compound | composite z-score
O=c1cccc(-c2ccccc2)o1 | -1.1
COc1cc2c(cc1O)C(c1ccc(CN3CCCC3)cc1)N(Cc1sc3ccccc3c1Cl)CC2 (stereo not drawn) | -0.209
C=CCC(OC(C)=O)[C@@H]1[C@@H](N(Cc2ccc(-c3cccc(C(F)(F)F)c3)o2)C(=O)Cc2ccc(OC)cc2)c2cc(OCCCO)ccc2N1C(=O)Cc1ccc(OC)cc1 (stereo partly drawn) | -0.399
CN1C(=O)C2C=CC(C(O)c3ccc(Br)cc3)N(Nc3ccccc3)C2C1=O (stereo not drawn) | 0.168
COc1ccc([Si](C)(C)[C@@H]2[C@@H](CCO)O[C@]3(C(=O)N(Cc4cccc(N(C=O)c5ccccc5)c4)c4ccccc43)[C@H]2C)cc1 | 1.32
COc1c(C)cc(-c2cc3c(c(-c4ccccc4)n2)[Si](C(C)C)(C(C)C)O[C@H]3c2ccccc2)cc1C | 0.111

[in] Fill in the blank: the reported composite z-score of "CC(C)NC(=O)[C@@H]1c2ccccc2C(=O)N(C2CCCCC2)[C@H]1c1ccc(CO)cc1" is ____.
[out] 0.77

[in] Report composite z-score for "[N-]=[N+]=NCc1ccccc1[C@@H]1OC(c2ccc(OCCCO)cc2)=N[C@]1(Cc1ccccc1N=[N+]=[N-])C(N)=O" please.
[out] 1.3
